Experiment: Lipophilicity, log D of the compound
Assay type: physicochemical
Details: octanol/water
Hi there, I'd appreciate the recorded logD for every entry that follows.
One number for each entry.

CN(C)N(c1cc(C#CC(C)(C)C)sc1C(=O)O)C(=O)[C@H]1CC[C@H](C)CC1 | 2.1

Could you now consider this next molecule?
QUERY: Give the measured logD of CC(C)N(c1cc(C#CC(C)(C)C)sc1C(=O)O)C(=O)[C@H]1CC[C@H](C)CC1 .
RESULT: 2

---

Hi there, I'd appreciate the recorded EC50 for every entry that follows.
Tested on: Hepatitis C virus
Assay: Antiviral activity against HCV1a infected in human Huh-7 cells after 3 days by renilla luciferase activity based replicon assay
Format: functional, organism-based, Hepacivirus hominis
Conditions: subtype 1a, Huh-7, 72 h

Hi team, please reply with EC50 for each item in this list.
1. CC(C)N(c1cc(C#CC(C)(C)C)sc1C(=O)O)C(=O)[C@H]1CC[C@H](C)CC1
2. CN(C)N(c1cc(C#CC(C)(C)C)sc1C(=O)O)C(=O)[C@H]1CC[C@H](C)CC1
3. CN1CCC(N(C)N(c2cc(C#CC(C)(C)C)sc2C(=O)O)C(=O)[C@H]2CC[C@H](C)CC2)CC1

RESULT:
["90 nM", "478 nM", "25 nM"]

Where these numbers come from: ChEMBL document CHEMBL2040772
